- Tested on: PCSK9/LDLR complex
- Assay Summary: PCSK9/LDLR protein complementation assay (PCA) in transfected HEK293 cells
- Assay type: cell-based, human
- Condition Notes: dose 1 μM
Result Type: % Control (PCSK9/LDLr PCA) (%)
Numbers only, in %.

Answered examples (3):
Fill blank: measured % Control (PCSK9/LDLr PCA) of the compound "CN[C@@H]1C[C@H]2O[C@@](C)([C@@H]1OC)n1c3ccccc3c3c4c(c5c6ccccc6n2c5c31)C(=O)NC4" is ____.
34

Fill blank: measured % Control (PCSK9/LDLr PCA) of the compound "CCOc1cc2ncc(C#N)c(Nc3ccc(OCc4ccccn4)c(Cl)c3)c2cc1NC(=O)/C=C/CN(C)C" is ____.
64

Fill blank: measured % Control (PCSK9/LDLr PCA) of the compound "CC[n+]1c(/C=C/N(C)c2ccccc2)n(-c2ccccc2)c2ccc(-c3nc4ccccc4s3)cc21" is ____.
65

Attention now shifts to the item below.
Fill blank: measured % Control (PCSK9/LDLr PCA) of the compound "Cc1ccc([N+](=O)[O-])cc1S(=O)(=O)N(C)/N=C/c1cnc2ccc(Br)cn12" is ____.
44
